All figures here come from ChEMBL document CHEMBL1201862.

# tgt: Cytochrome P450 3A4 (Homo sapiens, UniProt P08684)
# Sequence (P08684 whole entry): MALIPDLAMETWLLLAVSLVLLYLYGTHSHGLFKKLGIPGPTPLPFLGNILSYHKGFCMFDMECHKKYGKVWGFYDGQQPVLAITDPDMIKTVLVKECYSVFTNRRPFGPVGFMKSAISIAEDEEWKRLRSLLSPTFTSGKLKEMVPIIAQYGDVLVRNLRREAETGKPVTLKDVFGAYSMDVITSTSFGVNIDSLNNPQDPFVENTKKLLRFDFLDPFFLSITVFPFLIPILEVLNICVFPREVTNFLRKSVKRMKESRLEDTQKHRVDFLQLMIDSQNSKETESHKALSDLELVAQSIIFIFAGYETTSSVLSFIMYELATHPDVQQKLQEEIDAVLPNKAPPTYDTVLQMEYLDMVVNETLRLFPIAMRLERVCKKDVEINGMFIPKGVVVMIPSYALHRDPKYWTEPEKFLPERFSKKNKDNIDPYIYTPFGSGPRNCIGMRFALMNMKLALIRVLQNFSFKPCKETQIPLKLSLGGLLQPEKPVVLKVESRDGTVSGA
# assay.setup: Potency
assay.metric: AC50

Illustrative cases are given below, each with its answer.
N#Cc1ccc(C23CC4(C2)[C@H](CN(P(=O)(c2ccccc2)c2ccccc2)[C@@H]4c2ccccc2)C3c2ccc(Cl)nc2)cc1 (stereo partly specified) | 2 µM (inconclusive)
COC(=O)[C@]1(C)C[C@H]1[C@H](NP(=O)(c1ccccc1)c1ccccc1)c1ccccc1 | 12.6 µM (inconclusive)
CCC1=C2CC[C@H]3C(=O)N(C)C(=O)[C@H]3[C@H]2[C@@]2(C)C(=O)N(CC(=O)OC)C(=O)N2C1=O | 25.1 µM (inconclusive)
C#C[C@]1(OC(C)=O)CCC2C3CCC4=CC(=O)CCC4C3CC[C@]21C (stereo partly specified) | 39.8 µM (inconclusive)

Please report the recorded AC50 for COc1cc(OC)c(C(C)=O)c(O)c1C .
0.316 µM (inconclusive)

Look up AC50: COc1ccc(C2COc3c(ccc(O)c3OC)C2)c(OC)c1O (stereo unspecified)
25.1 µM (inconclusive)

* * *

# tgt: UniProt Q9NWZ3
# Sequence (Q9NWZ3 whole entry): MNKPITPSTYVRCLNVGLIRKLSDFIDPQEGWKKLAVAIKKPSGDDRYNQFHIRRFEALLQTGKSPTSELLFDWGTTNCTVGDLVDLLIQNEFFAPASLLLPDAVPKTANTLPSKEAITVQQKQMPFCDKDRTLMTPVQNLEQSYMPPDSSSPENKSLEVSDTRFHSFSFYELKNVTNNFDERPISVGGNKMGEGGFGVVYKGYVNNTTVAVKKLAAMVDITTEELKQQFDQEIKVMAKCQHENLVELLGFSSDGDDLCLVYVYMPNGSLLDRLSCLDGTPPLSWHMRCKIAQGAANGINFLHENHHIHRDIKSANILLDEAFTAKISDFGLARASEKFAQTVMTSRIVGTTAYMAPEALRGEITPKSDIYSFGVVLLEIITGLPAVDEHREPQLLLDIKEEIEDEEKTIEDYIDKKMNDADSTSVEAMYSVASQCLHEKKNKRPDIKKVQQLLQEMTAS
# Format: functional
Activity calls are given as the source filed them.
assay.metric: Ki

Some compounds with known Ki results, for comparison:
COCCNc1cc(-c2c[nH]c3ncccc23)cc(Cl)n1 | 3.98 µM (active)
Cc1ccc(Nc2nccc(Nc3ccccc3C(=O)O)n2)cc1F | 3.98 µM (active)
Nc1n[nH]c2ccc(-c3cc(Cc4ccccc4)no3)cc12 | 6.31 µM (active)

Lab note: next compound to report on.
Item NNc1cc(N2CCOCC2)nc(OCCc2ccccn2)n1 has what recorded Ki?
2.51 µM (active)

* * *

# Test system: BJ
# test.name: BJ-TERT fibroblast viability loss – cell-based, RAS-independent, luminescence, dose response (AID 1933)
# Type: functional
# assay.setup: Homo sapiens
Activity calls are given as the source filed them.
assay.metric: EC50

Examples from the recorded data:
Cc1oc2c(c1C(=O)N1CCOCC1)C(=O)c1ccccc1C2=O | 11.8 µM (active)
CCN(CC)c1ccc2c(c1)OC(N)=C(C#N)C2c1cccnc1 (centres undefined) | 0.368 µM (inconclusive)

Form field: reported EC50 of CCOC(=O)C(C)Oc1cccc2c(=O)n(CC(=O)NCc3ccccc3)ccc12 (centres undefined)
0.772 µM (active)

Fill in the blank: the reported EC50 of Nc1nn(-c2ccccc2)c(N)c1N=Nc1cccc(F)c1 is ____.
3.92 µM (active)

* * *

Known IC50 of a selection of molecules
# tgt: Apoptotic protease-activating factor 1 (Homo sapiens, UniProt O14727)
# Sequence (O14727 whole entry): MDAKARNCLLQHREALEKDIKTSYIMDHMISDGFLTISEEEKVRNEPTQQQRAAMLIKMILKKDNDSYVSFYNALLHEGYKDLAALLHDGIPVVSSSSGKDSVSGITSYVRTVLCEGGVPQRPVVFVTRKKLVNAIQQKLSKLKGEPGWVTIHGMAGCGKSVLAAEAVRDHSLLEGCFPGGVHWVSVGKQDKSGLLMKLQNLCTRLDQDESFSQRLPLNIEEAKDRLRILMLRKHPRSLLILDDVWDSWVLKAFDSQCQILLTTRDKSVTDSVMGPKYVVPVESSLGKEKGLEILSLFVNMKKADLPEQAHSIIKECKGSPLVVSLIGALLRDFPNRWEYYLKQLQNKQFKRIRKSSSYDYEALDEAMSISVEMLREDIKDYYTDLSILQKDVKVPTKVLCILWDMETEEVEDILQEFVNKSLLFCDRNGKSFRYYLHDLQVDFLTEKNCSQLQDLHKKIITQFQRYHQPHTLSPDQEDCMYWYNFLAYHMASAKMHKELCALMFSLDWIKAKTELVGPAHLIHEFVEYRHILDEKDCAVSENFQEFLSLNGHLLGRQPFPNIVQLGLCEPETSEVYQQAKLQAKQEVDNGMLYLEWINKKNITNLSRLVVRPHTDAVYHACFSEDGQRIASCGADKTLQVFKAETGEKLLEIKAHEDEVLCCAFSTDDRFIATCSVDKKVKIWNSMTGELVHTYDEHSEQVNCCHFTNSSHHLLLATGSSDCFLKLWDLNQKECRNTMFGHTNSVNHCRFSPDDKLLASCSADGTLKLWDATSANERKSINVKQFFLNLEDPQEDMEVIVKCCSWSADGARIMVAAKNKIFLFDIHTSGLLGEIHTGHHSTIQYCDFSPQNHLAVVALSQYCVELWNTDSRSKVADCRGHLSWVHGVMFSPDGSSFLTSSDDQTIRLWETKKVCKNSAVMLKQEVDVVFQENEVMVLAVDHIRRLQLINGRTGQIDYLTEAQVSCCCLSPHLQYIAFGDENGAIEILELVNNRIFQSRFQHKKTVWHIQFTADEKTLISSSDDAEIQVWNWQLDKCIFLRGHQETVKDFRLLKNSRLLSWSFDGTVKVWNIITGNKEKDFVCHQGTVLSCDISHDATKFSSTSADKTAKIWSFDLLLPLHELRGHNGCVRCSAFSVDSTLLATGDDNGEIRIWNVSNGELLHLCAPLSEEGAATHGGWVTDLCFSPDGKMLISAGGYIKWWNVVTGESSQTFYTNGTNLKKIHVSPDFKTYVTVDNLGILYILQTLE
# Assay type: functional
Active and inactive are the calls of the source.

CN(C)CCCN(C(=O)c1ccc(S(=O)(=O)N2CCc3ccccc3C2)cc1)c1nc2ccc(F)cc2s1 | 47.9 µM (active)

Given O=C1c2ccccc2C(=O)c2c1oc(C(F)(F)F)c2C(=O)c1ccccc1 , state its recorded IC50.
4.72 µM (active)

Any idea what its IC50 is? The molecule is CCCCNc1c(-c2ccc(SC(C)CC)cc2)nc2cnccn12 (configuration not stated)
63.1 µM (active)

# query: IC50 of entry Cc1oc2c(c1C(=O)N1CCOCC1)C(=O)c1ccccc1C2=O
13.9 µM (active)

Look at this molecule and give its reported IC50. O=C1C(=O)c2ccc(-c3ccccc3)cc2-c2ccccc21
0.316 µM (active)

What does the data say about its IC50? Entry: CCCCCCc1cc2cc(-c3nnc(-c4ccccc4OC)o3)c(=O)oc2cc1O
15.9 µM (active)

Any idea what IC50 was measured for C=C(C)Cc1c(C)c(C#N)c2nc3ccccc3n2c1O ?
38.6 µM (active)
